# Test system: MAPK (ERK)
# Assay Details: Activation of MAPK (ERK) in human normal keratinocytes (HEKa), Western blot of phospho-ERK / total ERK
# Assay type: cell-based
# Particulars: human primary keratinocytes (HEKa); 1 μM; 2 hours treatment; FIGS. 4A-C
Quantity Name: activation of ERK (increase in relative amount of Phosphorylated ERK)

Reference set (4 entries):
Cc1ccc2c(Nc3ccc(Cl)cc3)nccc2c1Nc1ncccc1-c1ncnc2[nH]cnc12	activation of ERK
C#Cc1cccc(Nc2nccc3c(Nc4ncccc4-c4cc(NC)ncn4)c(C)ccc23)c1	activation of ERK
CNc1ncc2cc(-c3c(C)ccc4c(Nc5cccc(OC(F)(F)F)c5)nc(C)nc34)ccc2n1	activation of ERK
Cc1ccc(NC(=O)c2cccc(N(C)C)c2)cc1NC(=O)c1ccc(O)cc1	activation of ERK

Attention now turns to another entry.
Input CNc1ncc2cc(-c3c(C)ccc4c(Nc5cc(C(C)(C)C)nn5C)nccc34)ccc2n1 . Output activation of ERK (increase in relative amount of Phosphorylated ERK): activation of ERK
